System: SNB-19
Test: NCI tumour cell line growth inhibition, 48 h
The source made the active and inactive calls. Rule as the data show it: active = GI50 up to about 1.1 µM and inactive = higher.
readoutType: GI50

- CC(C)(C)c1cc(C(C)(C)C)c(SS(=O)(=O)O)c(O)c1O: 46.8 µM (inactive)
- Cc1ccc(NC(=O)C(=O)C2C(=O)NC(=O)NC2=O)cc1C: > 100 µM (inactive)
- CCCCCCCCCC/C=C/C=O: > 100 µM (inactive)
- Nc1ccc(C(=O)NN2C(=O)C(Cl)C2c2ccccc2O)cc1 (configuration not stated): > 100 µM (inactive)
- Cn1cc(C(=O)c2ccccc2)ccc1=O: > 100 µM (inactive)
- COc1c(C)c2nc3ccccc3nc2c2c(O)ccnc12: 36.6 µM (inactive)
- Cc1c2cccc-2c(OCCO)cc2c1[nH]c1ccccc12: 8.57 µM (inactive)

* * *

Below is a list of entries, each paired with its recorded GI50 value.
Tested on: SK-MEL-2
Assay: NCI tumour cell line growth inhibition, 48 h
Activity calls are given as the source filed them. Cut-off read from the data, not from the text of the source: active = GI50 up to about 1.1 µM and inactive = higher.
readoutType: GI50

• COc1cc(C2C(Cl)C(=O)N2NC(=O)Cc2ccccc2)cc(Br)c1O (stereo not drawn) = > 100 µM (inactive)
• CC1=NN(c2nc(N)nc(CN3CCOCC3)n2)C(C)(C)C1 = > 100 µM (inactive)
• O=C1NC2CCCCC2NC1=C(C(=O)c1ccccc1)C(=O)c1ccccc1 (stereo not drawn) = 33.6 µM (inactive)
• Cc1cc(=O)oc2c(CNC(CC(C)C)C(=O)O)c(O)ccc12 (stereo not drawn) = > 100 µM (inactive)
• CCC(C)OC(=O)/C(Br)=C1/OC(=O)c2ccccc2-c2ccccc21 (stereo not drawn) = 24.2 µM (inactive)
• c1ccc(CCN(Cc2nc3ccccc3[nH]2)Cc2nc3ccccc3[nH]2)cc1 = 18 µM (inactive)
• COc1cc(C2c3cc(OC)c(OC)c(O)c3C(=O)C3CCC(=O)N32)cc(OC)c1OC (stereo not drawn) = > 100 µM (inactive)
• O=C(COc1ccc(Cl)cc1)N1N=C(c2ccc([N+](=O)[O-])o2)CC1(O)c1ccccc1 (stereo not drawn) = 7.24 µM (inactive)

* * *

Tested on: NCI-H460
Test: NCI tumour cell line growth inhibition, 48 h
Active and inactive are the calls of the source. Rule as the data show it: active = GI50 up to about 1.1 µM and inactive = higher.
readoutType: GI50

• NS(=O)(=O)c1cccc(NC(=S)NC(=O)Nc2ccc(Cl)c(Cl)c2)c1 = 16.7 µM (inactive)
• CC(C)=CCC[C@]1(C)C=Cc2c(O)c3c(c(CC=C(C)C)c2O1)O[C@]12C(=C[C@@H]4CC1C(C)(C)O[C@@]2(C/C=C(/C)C(=O)O)C4=O)C3=O = 1.24 µM (inactive)
• COc1cc(/C=N/c2nc3cc4sc(/N=C/c5cc(OC)c(OC)c(OC)c5)nc4cc3s2)cc(OC)c1OC = 21.5 µM (inactive)
• COc1cc(C2C(Cl)C(=O)N2NC(=O)Cc2ccccc2)cc(Br)c1O (centres undefined) = 80.9 µM (inactive)

* * *

System: DU-145
Experiment: NCI tumour cell line growth inhibition, 48 h
Calls of active or inactive are those of the source. Cut-off read from the data, not from the text of the source: active = GI50 up to about 1.1 µM and inactive = higher.
readoutType: GI50

* COC(=O)c1ccc(/C=C(\c2ccc([N+](=O)[O-])o2)S(=O)(=O)c2ccc(NC(C)=O)cc2)o1 | 10.1 µM (inactive)
* Cc1cc(S(=O)(=O)Nc2nc(N)n[nH]2)c(Cl)cc1Cl | > 10 µM (inactive)
* COc1cc(OC)c2nc(C)c3c(c2c1)OCC3 | > 100 µM (inactive)
* CC(=O)OCC(C)C1=C(O)C(=O)C2(C)C/C=C(/C)CC/C=C(\C)CCC(O)C(C)CCC12 (stereo not given) | 17.9 µM (inactive)
* NC1=CN(CCCO)C2=N/C(=C\c3ccco3)C(=O)N12 | > 100 µM (inactive)

* * *

Tested on: RXF 393
Assay: NCI tumour cell line growth inhibition, 48 h
Activity calls are given as the source filed them. Rule as the data show it: active = GI50 up to about 1.1 µM and inactive = higher. Where a SMILES comes first, the peptide text is derived from it. The star is where a group is joined. Cbz = O=C(OCc1ccccc1)*; Bn = c1ccc(C*)cc1
readoutType: GI50

- COC(=O)C(Cc1ccc(O)cc1)NC(=O)C(COCc1ccccc1)NC(=O)OCc1ccccc1 (stereo not given) (Cbz-Ser(Bn)-Tyr-OMe; configuration not given here): 18.7 µM (inactive)
- BrCC[N+]12CCCN1CCC2: 14 µM (inactive)
- CCCCCCCCCC/C=C/C=O: > 100 µM (inactive)
- Cc1ccc([N+](=O)[O-])cc1S(=O)(=O)Nc1ccc(C2=NN(c3ccc([N+](=O)[O-])cc3[N+](=O)[O-])C(c3cccs3)C2)cc1 (stereo not given): 18.6 µM (inactive)
- CCCC1=NC(C(F)(F)F)(C(F)(F)F)N=C(N2CCOCC2)O1: > 100 µM (inactive)
- CCN(CC)c1ccc2cc(C(N)=O)/c(=N/c3ccc(F)cc3)oc2c1: 22.8 µM (inactive)
- O=C1C2c3[nH]c4ccccc4c3[C@@H]3CCCCCCCCCCC3C2C(=O)N1c1ccccc1 (stereo not given in full): 14.8 µM (inactive)
- O=C(C(Cl)=C(N1CCCCC1)N1CCCCC1)C(Cl)Cl: > 100 µM (inactive)
- Cc1cc2c(Br)cc(Br)c(O)c2nc1C(=O)c1ccccc1: > 47.5 µM (inactive)
- CC(C)N(C(=O)C12C3C4C1C1C2C3C41C#N)C(C)C (stereo not given): > 100 µM (inactive)

* * *

System: A549
Experiment: NCI tumour cell line growth inhibition, 48 h
Activity calls are given as the source filed them. Cut-off read from the data, not from the text of the source: active = GI50 up to about 1.1 µM and inactive = higher.
Classes used: active, inactive

- C/C=C/C=N/N(c1nnc(-c2ccccc2)c(-c2ccccc2)n1)S(=O)(=O)c1ccc(C)cc1: inactive
- COC(=O)[C@@H](NC(=O)N(Cc1ccccc1)C[C@H](CC(C)C)NC(=O)[C@@H](NC(=O)OC(C)(C)C)C(C)C)C(C)C: inactive
- CC(=O)Nc1ccc(C(=O)NN2C(=O)C(Cl)C2c2ccc(Cl)cc2)cc1 (configuration not stated): inactive
- CC(C)(C)OC(=O)Cc1ccc2c(ccn2Cc2ccccc2)c1: inactive
- COc1ccc(NC(=S)C#N)cc1: inactive
- C[C@H](CCC1=NCCN1)[C@H]1CC[C@H]2[C@@H]3CC[C@@H]4C[C@H](O)CC[C@]4(C)[C@H]3CC[C@]12C: inactive
- COc1cccc(Nc2nc(-c3cccs3)nc3ccc(Br)cc23)c1: inactive
- O=c1cccccc1O: inactive
- O=C(O)CN1C(=O)OC(c2ccccc2)C1=O (configuration not stated): inactive
- COc1ccc(C(=O)N2c3ccccc3N(C)n3cccc3C2CC(=O)O)cc1 (configuration not stated): inactive
- C[C@H](CCC(=O)O)[C@H]1CC[C@H]2[C@@H]3[C@H](O)C[C@@H]4C[C@H](O)CC[C@]4(C)[C@H]3CC[C@]12C: inactive
- CN1CCc2c(sc3nc(S)nc(S)c23)C1: inactive
- CO/C(N)=C(C#N)/N=C/c1cccnc1: inactive
- COc1ccc(-c2c3c(n(C4OC(COC(C)=O)C(OC(C)=O)C(OC(C)=O)C4OC(C)=O)c(=S)c2C#N)CCCC3)cc1 (configuration not stated): inactive
- COc1nc(NC2OCC(OC(C)=O)C(OC(C)=O)C2OC(C)=O)c(/N=C\C=N\c2c(NC3OCC(OC(C)=O)C(OC(C)=O)C3OC(C)=O)nc(OC)n(C)c2=O)c(=O)n1C (configuration not stated): inactive
- O=c1cc(N2CCOCC2)n2c(ccc3ccccc32)n1: inactive
- Cc1[nH]nc(-c2ccon2)c1N=O: inactive
- NC(C(=O)O)C(O)c1c[nH]cn1 (configuration not stated): inactive
- N#Cc1ccnc(C(=O)N2CCCC2C(=O)O)c1 (configuration not stated): inactive
- CSc1nc(-c2ccccc2)nc(C(C#N)C#N)n1: inactive
- CC1=C2[C@@H](c3ccccc3)C3C=CC2(C=C3C(F)(F)F)N(C(=O)NC2CCCCC2)C1=O (some centres not stated): inactive
- C=CCOCC1C2CCC3(OCCO3)C21 (configuration not stated): inactive
- COC(=O)c1onc(-c2c(OC)cc(OC)cc2OC)c1C(=O)OC: inactive
- Cc1ccc(/N=N/c2c(O)c(C(=O)Nc3ccccc3)cc3ccccc23)c([N+](=O)[O-])c1: inactive
- CCOC(=O)/C(=N/Nc1ccccc1)N1C(=S)N(C)N=C(C)C=C1S: inactive
- OC(c1ccoc1)c1cc2ccccc2s1 (configuration not stated): inactive
- CCOC(=N)CC(=O)Nc1ccc(Cl)cc1: inactive
- CS(C)(=O)=N/C=C\C(=O)C(Cl)(Cl)Cl: inactive
- Cc1cc(C)c2c(c1)C1=NCCN1C2(O)c1ccc(Cl)cc1 (configuration not stated): inactive
- O=C(O)CN1CCNCCN(CC(=O)O)CCNCC1: inactive
- CNS(=O)(=O)NNS(=O)(=O)c1ccc(Cl)cc1: inactive
- O=C(CSCC(=O)N/N=C\c1cccc([N+](=O)[O-])c1)N/N=C\c1cccc([N+](=O)[O-])c1: inactive
- COc1ccccc1NC(=S)N/N=C/c1ccccn1: active
- CC(C)c1ccc(/C=C(\NC(=O)c2ccccc2)c2nc3ccccc3[nH]2)cc1: inactive
- O=P(O)(O)CN1CCN(CP(=O)(O)O)CCN(CP(=O)(O)O)CCN(CP(=O)(O)O)CC1: inactive
- CC(=O)/C=C/c1ccc(C)cc1: inactive
- O=C1c2ccc(O)cc2C(=O)c2ccc(O)cc21: inactive
- CC(=O)OCc1cc(CCC(=O)NCCNc2c3ccccc3nc3ccccc23)cc(COC(C)=O)c1O[Si](C)(C)C(C)(C)C: inactive
- O=C(C(Cl)=C(N1CCCCC1)N1CCCCC1)C(Cl)Cl: inactive
- C(/C=C/N1CCCC1)=C\c1nc(N2CCCC2)c2ccccc2n1: inactive
- C[C@H]1CCC2C(CN3CCCCC3)C(=O)OC2[C@]2(C)C(=O)CC(N3CCCCC3)C12O (some centres not stated): inactive
- O=C1CSCc2sccc21: inactive
